Assay system: human 5-HT6 receptor (Homo sapiens, UniProt P50406)
Construct: host or cells: CHO-K1 cells, stably transfected; membranes prepared in house
Sequence (P50406 whole entry): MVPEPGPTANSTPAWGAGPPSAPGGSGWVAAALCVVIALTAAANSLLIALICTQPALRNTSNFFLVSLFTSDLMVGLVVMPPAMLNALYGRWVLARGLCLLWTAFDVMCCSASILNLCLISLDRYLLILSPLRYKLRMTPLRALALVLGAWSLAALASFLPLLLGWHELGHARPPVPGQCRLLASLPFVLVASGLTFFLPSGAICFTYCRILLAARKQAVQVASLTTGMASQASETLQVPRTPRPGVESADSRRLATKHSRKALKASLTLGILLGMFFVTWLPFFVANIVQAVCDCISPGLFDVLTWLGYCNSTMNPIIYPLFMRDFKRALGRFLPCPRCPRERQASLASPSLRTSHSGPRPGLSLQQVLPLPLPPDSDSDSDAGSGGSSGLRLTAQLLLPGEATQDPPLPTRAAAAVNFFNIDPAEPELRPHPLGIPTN
Run description: Human 5-HT6 Receptor Binding Assay ([3H]LSD displacement, scintillation beads)
Setup conditions: membranes of CHO-K1 cells with recombinant human 5-HT6, 4 nM [3H]LSD; Table 1, class symbols; read-out: h5-HT6 (Ki)
Measured property: Ki

// solved cases for Ki follow
1. COc1cccc(S(=O)(=O)c2ccc3c(c2)OC2CNCCC32C)c1 (racemic): < 500 nM
2. O=S(=O)(c1ccc2c(c1)OCCO2)c1ccc2c(c1)C1CCNCC1O2 (stereo not drawn): > 1000 nM

Form: molecule = O=S(=O)(Oc1ccc2c(c1)C1CCNCC1O2)c1c(Cl)cccc1Cl (stereo not drawn) ; Ki = < 500 nM

Form: molecule = CC1(C)CNC(C2CCOCC2)c2oc3cc(S(=O)(=O)c4cccc(F)c4)ccc3c21 (racemic) ; Ki = < 500 nM

Form: molecule = CNC(=O)c1cccc(S(=O)(=O)c2ccc3c4c(oc3c2)CNCC4)c1 ; Ki = 500 to 1000 nM

Form: molecule = COC(=O)c1cccc(S(=O)(=O)c2ccc3c(c2)OC2CNCCC32)c1 (stereo not drawn) ; Ki = > 1000 nM

Form: molecule = CN1CCC2c3ccc(S(=O)(=O)c4ccccc4)cc3OC2C1 (stereo not drawn) ; Ki = < 500 nM

====

Assay system: human 5-HT6 receptor (Homo sapiens, UniProt P50406)
Construct: host or cells: CHO-K1 cells, stably transfected; membranes prepared in house
Run description: Human 5-HT6 Receptor Binding Assay ([3H]LSD displacement, scintillation beads)
Setup conditions: membranes of CHO-K1 cells with recombinant human 5-HT6, 4 nM [3H]LSD; Table 1, class symbols; read-out: h5-HT6 (Ki)
pKi: −log10 of the molar value.
Measured property: pKi

// solved cases for pKi follow
1. CC1NCCc2c1oc1ccc(S(=O)(=O)c3cccc(F)c3)cc21 (stereo not drawn) [Example 283]: > 6.30
2. O=S(=O)(c1ccc(Oc2ccccc2)cc1)c1ccc2oc3c(c2c1)CCNC3 [Example 248]: > 6.30
3. O=S(=O)(c1ccc2c(c1)OC1CNCCC21)c1cc(F)cc(F)c1F (stereo not drawn) [Example 386]: > 6.30

# value of pKi, human 5-HT6 receptor (Homo sapiens, UniProt P50406), item CC12CCNCC1Oc1ccc(S(=O)(=O)c3cccc(Cl)c3)cc12 (stereo not drawn) [Example 104] = < 6.00

# value of pKi, human 5-HT6 receptor (Homo sapiens, UniProt P50406), item Cc1ccc(S(=O)(=O)c2ccc3oc4c(c3c2)CCNC4)cc1 [Example 252] = > 6.30

# value of pKi, human 5-HT6 receptor (Homo sapiens, UniProt P50406), item O=S(=O)(c1cccc(Oc2ccccn2)c1)c1ccc2c(c1)OC1CNCCC21 (stereo not drawn) [Example 579] = > 6.30

# value of pKi, human 5-HT6 receptor (Homo sapiens, UniProt P50406), item O=S(=O)(c1ccc2c3c(oc2c1)CNCC3)c1cc(Cl)ccc1Cl [Example 215] = > 6.30

# value of pKi, human 5-HT6 receptor (Homo sapiens, UniProt P50406), item O=S(=O)(Oc1ccc2c(c1)C1CCNCC1O2)c1ccc(C(F)(F)F)cc1 (stereo not drawn) [Example 735] = < 6.00

# value of pKi, human 5-HT6 receptor (Homo sapiens, UniProt P50406), item O=S(=O)(CCc1ccccc1)Oc1ccc2c(c1)C1CCNCC1O2 (stereo not drawn) [Example 755] = < 6.00

# value of pKi, human 5-HT6 receptor (Homo sapiens, UniProt P50406), item O=S(=O)(c1ccccc1)c1ccc2c(c1)OC1CN(Cc3ccccc3)CCC21 (stereo not drawn) [Example 611] = > 6.30

# value of pKi, human 5-HT6 receptor (Homo sapiens, UniProt P50406), item O=S(=O)(c1ccc2c(c1)OC1CNCCC21)c1cccc(Cl)c1F (stereo not drawn) [Example 422] = > 6.30

====

The reader will find reported Ki values listed item by item below.
Assay system: human 5-HT6 receptor (Homo sapiens, UniProt P50406)
Construct: host or cells: CHO-K1 cells, stably transfected; membranes prepared in house
Run description: Human 5-HT6 Receptor Binding Assay ([3H]LSD displacement, scintillation beads)
Setup conditions: membranes of CHO-K1 cells with recombinant human 5-HT6, 4 nM [3H]LSD; Table 1, class symbols; read-out: h5-HT6 (Ki)

1. O=S(=O)(c1ccc2c(c1)OC1CNCCC21)c1c(F)c(F)cc(F)c1F (stereo not drawn): < 500 nM

Now for the compound whose Ki we want.
Form: compound = [O-][S+](c1cncc(F)c1)c1ccc2c(c1)OC1CNCCC21 (stereo not drawn) ; Ki = > 1000 nM

====

Assay system: human 5-HT6 receptor (Homo sapiens, UniProt P50406)
Construct: host or cells: CHO-K1 cells, stably transfected; membranes prepared in house
Run description: Human 5-HT6 Receptor Binding Assay ([3H]LSD displacement, scintillation beads)
Setup conditions: membranes of CHO-K1 cells with recombinant human 5-HT6, 4 nM [3H]LSD; Table 1, class symbols; read-out: h5-HT6 (Ki)
The reader will find reported Ki values listed item by item below.

Form: compound = O=S(=O)(c1cccc(Oc2cnccn2)c1)c1ccc2c(c1)OC1CNCCC21 (stereo not shown) [Example 580] ; Ki = < 500 nM

Form: compound = O=S(=O)(Oc1ccc2c(c1)C1CCNCC1O2)c1cccc(Cl)c1 (stereo not shown) [Example 710] ; Ki = < 500 nM

Form: compound = CC1(C(F)F)NCCc2c1oc1cc(S(=O)(=O)c3ccccc3)ccc21 (stereo not shown) [Example 524] ; Ki = < 500 nM

Form: compound = O=S(=O)(c1ccccc1)c1ccc2c(c1)OC1CN(C3CCCCC3)CCC21 (stereo not shown) [Example 610] ; Ki = 500 to 1000 nM

Form: compound = O=S(=O)(Oc1ccc2c(c1)C1CCNCC1O2)c1ccc(-n2cccn2)cc1 (stereo not shown) [Example 733] ; Ki = 500 to 1000 nM

Form: compound = O=S(=O)(Cc1cccc(Cl)c1)Oc1ccc2c(c1)C1CCNCC1O2 (stereo not shown) [Example 752] ; Ki = > 1000 nM

Form: compound = O=S(=O)(Cc1ccc(F)cc1F)Oc1ccc2c(c1)C1CCNCC1O2 (stereo not shown) [Example 756] ; Ki = > 1000 nM

Form: compound = O=S(=O)(Oc1ccc2c(c1)OC1CNCCC21)c1cccc2cccnc12 (stereo not shown) [Example 662] ; Ki = < 500 nM

Form: compound = CC(=O)NCC1(C)NCCc2c1oc1cc(S(=O)(=O)c3cccc(F)c3)ccc21 (stereo not shown) [Example 632] ; Ki = < 500 nM

Form: compound = CCOc1cccc(S(=O)(=O)c2ccc3c(c2)OC2CNCCC32C)c1 (racemic) [Example 10] ; Ki = < 500 nM

====

Assay system: human 5-HT6 receptor (Homo sapiens, UniProt P50406)
Construct: host or cells: CHO-K1 cells, stably transfected; membranes prepared in house
Run description: Human 5-HT6 Receptor Binding Assay ([3H]LSD displacement, scintillation beads)
Setup conditions: membranes of CHO-K1 cells with recombinant human 5-HT6, 4 nM [3H]LSD; Table 1, class symbols; read-out: h5-HT6 (Ki)
pKi: −log10 of the molar value.
Measured property: pKi

// solved cases for pKi follow
1) CC1(C)CNCc2oc3cc(S(=O)(=O)c4cccc(F)c4)ccc3c21: > 6.30
2) Cc1noc(C)c1S(=O)(=O)Oc1ccc2c(c1)OC1CNCCC21 (stereo not drawn): 6.00 to 6.30
3) Cc1ccc(F)cc1S(=O)(=O)c1ccc2oc3c(c2c1)CCNC3: > 6.30

Now for the molecule whose pKi we want.
Form: molecule = O=S(=O)(NCc1ccc(Cl)cc1)c1ccc2c(c1)C1CCNCC1O2 (stereo not drawn) ; pKi = < 6.00

====

Assay system: human 5-HT6 receptor (Homo sapiens, UniProt P50406)
Construct: host or cells: CHO-K1 cells, stably transfected; membranes prepared in house
Run description: Human 5-HT6 Receptor Binding Assay ([3H]LSD displacement, scintillation beads)
Setup conditions: membranes of CHO-K1 cells with recombinant human 5-HT6, 4 nM [3H]LSD; Table 1, class symbols; read-out: h5-HT6 (Ki)
Measured property: Ki

// solved cases for Ki follow
1) O=S(=O)(c1ccc2c3c(oc2c1)CNCC3)c1cccc2nsnc12 [Example 83]: < 500 nM
2) Nc1cccc(S(=O)(=O)c2ccc3oc4c(c3c2)CCNC4)c1 [Example 349]: < 500 nM
3) O=S(=O)(CCc1ccccc1)Oc1ccc2c(c1)OC1CNCCC21 (stereo not shown) [Example 691]: > 1000 nM

Form: molecule = Cc1c(Cl)cccc1S(=O)(=O)Oc1ccc2c(c1)C1CCNCC1O2 (stereo not shown) [Example 718] ; Ki = < 500 nM

Values were extracted from patent US8765779B2.
